- target desc: mMC5R (Mus musculus, UniProt P41149)
- Sequence (P41149 whole entry, looked up): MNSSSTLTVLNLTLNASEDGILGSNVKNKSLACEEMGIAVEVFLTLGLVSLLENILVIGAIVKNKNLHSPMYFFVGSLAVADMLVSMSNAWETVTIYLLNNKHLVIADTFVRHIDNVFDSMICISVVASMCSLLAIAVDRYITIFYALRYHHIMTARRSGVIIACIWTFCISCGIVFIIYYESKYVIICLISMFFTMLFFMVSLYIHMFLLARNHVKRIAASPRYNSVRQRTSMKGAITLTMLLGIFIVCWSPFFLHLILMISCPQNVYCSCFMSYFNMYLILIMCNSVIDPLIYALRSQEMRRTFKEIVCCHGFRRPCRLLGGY
- run description: mMC5R | Agonist EC50 (nM)
readout kind: EC50 (nM)
Write the value in nM as a bare number.

// lookup EC50 for `CC(=O)N[C@@H](Cc1c[nH]cn1)C(=O)N[C@H](Cc1ccccc1)C(=O)N[C@@H](CCCNC(=N)N)C(=O)N[C@@H](Cc1c[nH]c2ccccc12)C(N)=O` 9.8

###

Examples of compounds with documented pEC50 follow.
- target desc: hMC4R (Homo sapiens, UniProt P32245)
- Construct: Flag; expressed in transfected cells
- Sequence (P32245 whole entry, looked up): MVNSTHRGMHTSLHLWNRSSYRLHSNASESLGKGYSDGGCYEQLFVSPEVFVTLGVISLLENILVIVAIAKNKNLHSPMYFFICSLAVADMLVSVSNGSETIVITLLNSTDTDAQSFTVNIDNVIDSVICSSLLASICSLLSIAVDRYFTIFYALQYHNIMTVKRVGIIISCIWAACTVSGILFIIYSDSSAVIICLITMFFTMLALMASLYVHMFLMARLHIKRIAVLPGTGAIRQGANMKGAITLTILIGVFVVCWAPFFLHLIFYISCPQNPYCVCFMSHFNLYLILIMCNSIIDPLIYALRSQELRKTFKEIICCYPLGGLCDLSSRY
- run description: β-Arrestin Recruitment | EC50 (nM)
Square brackets hold non-standard residues; d marks the D form. Peptide text beside a SMILES is read from it.
# pEC50 is unitless: minus log10 of the molar concentration; print number only

Consider the reported pEC50 for these compounds:
1) N=C(N)NCCC[C@H](NC(=O)[C@@H](Cc1ccccc1)NC(=O)[C@H](Cc1c[nH]cn1)NC(=O)COCC(=O)NCCCOCCOCCOCCCN)C(=O)N[C@@H](Cc1c[nH]c2ccccc12)C(N)=O
6.85
2) CC(=O)N[C@@H](Cc1c[nH]cn1)C(=O)N[C@H](Cc1ccccc1)C(=O)N[C@@H](CCCNC(=N)N)C(=O)N[C@@H](Cc1c[nH]c2ccccc12)C(=O)NCCCOCCOCCOCCCNC(=O)COCC(=O)NCCCOCCOCCOCCCNC(=O)COCC(=O)N[C@@H](Cc1c[nH]cn1)C(=O)N[C@H](Cc1ccccc1)C(=O)N[C@@H](CCCNC(=N)N)C(=O)N[C@@H](Cc1c[nH]c2ccccc12)C(N)=O
6.55

// switching to the query compound
Reported pEC50, compound CC(=O)N[C@@H](Cc1c[nH]cn1)C(=O)N[C@H](Cc1ccccc1)C(=O)N[C@@H](CCCNC(=N)N)C(=O)N[C@@H](Cc1c[nH]c2ccccc12)C(=O)N1CCC[C@H]1C(=O)NCC(=O)N1CCC[C@H]1C(=O)NCC(=O)N1CCC[C@H]1C(=O)NCC(=O)N1CCC[C@H]1C(=O)NCC(=O)N1CCC[C@H]1C(=O)NCC(=O)N1CCC[C@H]1C(=O)NCC(N)=O [CJL5-35-1, Ac-His-DPhe-Arg-Trp-(Pro-Gly)6-NH2] (Ac-H[dF]RWPGPGPGPGPGPG-NH2) : ____ 5.80
